experiment: Cell viability assay (MTT); conditions: human, MCF-10A mammary gland epithelial cells
Please respond with reported viability at 96 h, 50 µM for every item in the list.

As a guide, the following entries are already answered.
{"MOLECULE": "c1ccc(-c2csc(NN=C3CCCCCCC3)n2)cc1", "TEST READOUT": "viability at 96 h, 50 µM", "RESULT": "92%"}
{"MOLECULE": "CCOC(=O)/C=C1/S/C(=N/N=C2\\C(=O)Nc3ccccc32)NC1=O [Compound 12f]", "TEST READOUT": "viability at 96 h, 50 µM", "RESULT": "89%"}
{"MOLECULE": "c1ccc(-c2csc(N/N=C3\\CCCc4ccccc43)n2)cc1", "TEST READOUT": "viability at 96 h, 50 µM", "RESULT": "90%"}
{"MOLECULE": "CCOC(=O)/C=C1/S/C(=N/N=C2CCCCC2)NC1=O [Compound 12b]", "TEST READOUT": "viability at 96 h, 50 µM", "RESULT": "89%"}

With those in mind, consider the next molecule.
Query: Please look at this molecule and report its viability at 96 h, 50 µM: CCOC(=O)/C=C1/S/C(=N/N=C2c3ccccc3-c3ccccc32)NC1=O [Compound 12e]
Reply: 91%

###

test system: colon cancer (HT-29) cell line; assay: Antiproliferative assay, HT-29; details: Homo sapiens, HT-29, read-out: Antiproliferative Activity IC50 ± SEM, HT-29
TEST READOUT: IC50 (nM)
Numbers only, in nM.

For each of the compounds below, note its IC50.
1. O=C1Nc2ccccc2/C1=N/Nc1nc(-c2ccccc2)cs1 [Compound 9f]
2. CCOC(=O)/C=C1/S/C(=N/N=C2CCCC2)NC1=O [Compound 12a]
3. C#Cc1cccc(Nc2ncnc3cc(OCCOC)c(OCCOC)cc23)c1 [Erlotinib, reference compound]

Reply:
45
84
30

Recorded values, source paper PMC10745574.
